# Target or test system: human CCR2 (Homo sapiens, UniProt P41597)
# Sequence (P41597 1-360 isoform P41597-2): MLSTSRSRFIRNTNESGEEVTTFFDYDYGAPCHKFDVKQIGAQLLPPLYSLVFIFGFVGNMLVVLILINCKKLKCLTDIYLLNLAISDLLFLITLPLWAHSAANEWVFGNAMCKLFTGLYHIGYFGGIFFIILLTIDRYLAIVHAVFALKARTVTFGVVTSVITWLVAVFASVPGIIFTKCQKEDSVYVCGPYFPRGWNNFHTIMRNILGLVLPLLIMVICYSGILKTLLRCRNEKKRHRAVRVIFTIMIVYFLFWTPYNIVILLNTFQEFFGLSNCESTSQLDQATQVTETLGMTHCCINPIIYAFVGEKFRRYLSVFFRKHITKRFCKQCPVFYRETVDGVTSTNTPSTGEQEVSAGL
# Assay protocol: CCR2 chemotaxis (MCP-1-induced, THP-1 cells)
# Assay type: cell-based
# Design: hPBMCs were isolated from human leukopak (Biological Specialty Inc.); endogenous in cells; host or cells: human peripheral blood mononuclear cells from leukopak (Biological Specialty Inc.)
Known IC50 of a selection of compounds
Recorded metric: IC50 (nM)

structure=CC(C)(C)N[C@@H]1CC[C@H](N2CC[C@H](NC(=O)c3ccnc(C(C)(C)C)n3)C2=O)[C@H](NS(C)(=O)=O)C1 recorded_metric=IC50 result_number=0.92
structure=CC(=O)N[C@@H]1C[C@H](N(C)C)CC[C@@H]1N1CC[C@H](Nc2ncnc3ccc(C(F)(F)F)cc23)C1=O recorded_metric=IC50 result_number=4.09
structure=CC(C)(C)N[C@@H]1CC[C@H](N2CC[C@H](Nc3ncnc4cnc(C(C)(C)C)nc34)C2=O)[C@H](NS(C)(=O)=O)C1 recorded_metric=IC50 result_number=0.49
